Data credit: paper PMC11855827

# System: C. elegans
# test_protocol: microbe, parasite or virus in culture
# condition_details: Caenorhabditis elegans, 0 h, read-out: Percentage of motility inhibition 0 h
Decide using inhibition at 110 µM: a value greater than or equal to 3% is yes, a smaller one is no.

Prompt: Decide: is the reported value of inhibition at 110 µM for N[C@@H](Cc1ccc(O)cc1)C(=O)O [L-Tyrosine] equal to or greater than 3%?
Response: yes

Prompt: Decide: is the reported value of inhibition at 110 µM for OCc1ccc(O[C@@H]2O[C@H](CO)[C@@H](O)[C@H](O)[C@H]2O)cc1 [Gastrodin] equal to or greater than 3%?
Response: yes

Prompt: Decide: is the reported value of inhibition at 110 µM for O=c1c(-c2ccc(O[C@@H]3O[C@H](CO)[C@@H](O)[C@H](O)[C@H]3O)cc2)coc2cc(O)cc(O)c12 [Sophoricoside] equal to or greater than 3%?
Response: no

Prompt: Decide: is the reported value of inhibition at 110 µM for C=C(CC[C@@H](C(=O)O)[C@H]1[C@H](O)C[C@@]2(C)C3=CC[C@@H](C(=C)C)[C@](C)(CCC(=O)O)C3=CC[C@]12C)C(C)C [Poricoic acid A] equal to or greater than 3%?
Response: no

Prompt: Decide: is the reported value of inhibition at 110 µM for CN1[C@@H]2CC[C@H]1C[C@@H](OC(=O)[C@H](CO)c1ccccc1)C2 [L‐Hyoscyamine] equal to or greater than 3%?
Response: yes
